- PROTOCOL_NOTES: Wnt pathway potentiators raising nuclear beta-catenin – imaging, WNT3A-conditioned medium, mouse C2C12, NPC library, primary screen (AID 1117326)
- SETTINGS: stimulation, at 2 µM, stronger effect = higher value
nuclear beta-catenin stimulation: recorded values
// note: answer is a bare numeric in %

COMPOUND | nuclear beta-catenin stimulation / %
COc1cc2c(cc1OC)C(=O)C(CC1CCN(Cc3ccccc3)CC1)C2 (stereo unspecified) | -0.2
Cc1nnc(SCC2=C(C(=O)O)N3C(=O)[C@@H](NC(=O)Cn4cnnn4)[C@H]3SC2)s1 | 0.2
COc1ccc2cc3[n+](cc2c1OC)CCc1cc2c(cc1-3)OCO2 | 0
CC1(C)O[C@@H]2C[C@H]3[C@@H]4CCC5=CC(=O)CC[C@]5(C)[C@@]4(F)[C@@H](O)C[C@]3(C)[C@]2(C(=O)CCl)O1 | 0.3

Ask: Give the reported value of nuclear beta-catenin stimulation for this record: CC(Oc1c(Cl)cccc1Cl)C1=NCCN1 (stereo unspecified)
Reply: 0.3

Ask: Report nuclear beta-catenin stimulation for Clc1ccc2nsnc2c1NC1=NCCN1
Reply: -0.6

Ask: Report nuclear beta-catenin stimulation for NC(=O)OCC(COC(N)=O)c1ccccc1
Reply: 0

Ask: Indicate the recorded nuclear beta-catenin stimulation value for this compound: CN(C)C(=O)Nc1ccc(Cl)c(Cl)c1
Reply: 0.5

Ask: Please give measured nuclear beta-catenin stimulation of the following entry: CCCCOc1ccc(CC(=O)NO)cc1
Reply: 0.3

Ask: For Cc1[nH]c(C)c(Cl)c(=O)c1Cl , write its nuclear beta-catenin stimulation.
Reply: 0.4

Ask: Answer with the recorded nuclear beta-catenin stimulation for the compound listed here: CCN1CCCC1CNC(=O)c1cc(S(=O)(=O)CC)c(N)cc1OC (stereo unspecified)
Reply: -0.8

---

- TARGET_SYSTEM: Mitogen-activated protein kinase 7 (Homo sapiens) (UniProt Q13164)
- Sequence (Q13164 whole entry, looked up, the tested form may be a part): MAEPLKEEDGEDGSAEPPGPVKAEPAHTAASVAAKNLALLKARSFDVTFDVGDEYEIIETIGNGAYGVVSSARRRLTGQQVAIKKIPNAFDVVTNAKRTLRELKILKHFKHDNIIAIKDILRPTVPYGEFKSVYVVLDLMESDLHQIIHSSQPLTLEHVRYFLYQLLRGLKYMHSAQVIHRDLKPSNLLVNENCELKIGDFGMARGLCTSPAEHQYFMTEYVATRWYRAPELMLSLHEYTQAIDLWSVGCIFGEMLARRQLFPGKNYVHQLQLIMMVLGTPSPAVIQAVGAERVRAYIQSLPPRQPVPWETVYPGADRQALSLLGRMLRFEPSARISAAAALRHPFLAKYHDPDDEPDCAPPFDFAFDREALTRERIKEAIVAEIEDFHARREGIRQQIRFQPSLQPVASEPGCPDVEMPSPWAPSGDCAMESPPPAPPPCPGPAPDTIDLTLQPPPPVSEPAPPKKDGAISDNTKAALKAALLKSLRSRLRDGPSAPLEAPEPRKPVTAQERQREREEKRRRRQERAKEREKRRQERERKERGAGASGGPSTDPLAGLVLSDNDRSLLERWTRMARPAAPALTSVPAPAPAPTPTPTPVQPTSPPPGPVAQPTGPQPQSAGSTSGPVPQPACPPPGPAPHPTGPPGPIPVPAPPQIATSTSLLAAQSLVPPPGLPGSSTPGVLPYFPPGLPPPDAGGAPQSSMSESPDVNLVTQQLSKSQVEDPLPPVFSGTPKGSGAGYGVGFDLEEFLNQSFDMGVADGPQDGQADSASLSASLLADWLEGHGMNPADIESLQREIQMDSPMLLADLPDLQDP
- PROTOCOL_NOTES: Gal4-ERK5 driven luciferase induction – cell-based, HTS, primary screen (AID 1508626);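 also: luciferase driven by Gal4-ERK5 fusion binding five Gal4 sites before minimal TATA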
- SETTINGS: HeLa Gal4-ERK5 transactivation, 18 h, at 5 µM
The source made the active and inactive calls.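 How the source made its calls: active means luciferase signal above three times the same-plate solvent-only control wells; inactive means the rest.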
Lab note: assign the record to one of T (active), F (inactive)

Take a look at these entries with their results.
COMPOUND | LABEL_VALUE
Nc1ccc(N=Nc2ccccc2)c(N)n1 | T
NS(=O)(=O)c1cc(C(=O)O)c(NCc2ccco2)cc1Cl | F
O=C(O)c1ccc(S(=O)(=O)N(Cl)Cl)cc1 | F
COc1ccc(CCN(C)CCCC(C#N)(c2ccc(OC)c(OC)c2)C(C)C)cc1OC (stereo unspecified) | F
O=C(O)c1ccccc1OP(=O)(O)O | F
Cc1c(N(C)CS(=O)(=O)O)c(=O)n(-c2ccccc2)n1C | F
Cc1cccc(C)c1OCC(C)N (stereo unspecified) | F
CO[C@@]1(NC(=O)C(C(=O)O)c2ccc(O)cc2)C(=O)N2C(C(=O)O)=C(CSc3nnnn3C)CO[C@@H]21 (stereo partly specified) | F
Cc1cccc(C(=O)O)c1O | F
NC(=O)c1ncn([C@@H]2O[C@H](CO)[C@@H](O)[C@H]2O)n1 | F

Ask: What classification did C[C@]12CCC(=O)C=C1CC[C@@H]1[C@@H]2[C@@H](O)C[C@@]2(C)[C@H]1CC[C@]2(O)C(=O)COP(=O)(O)O end up with in this test?
Reply: F

Ask: Each compound tested received a call. Report the one for CCCCOc1ccc(C(=O)CCN2CCCCC2)cc1 .
Reply: F

Ask: Check the results log: what was the call for Nc1ccc(C(=O)O)c(O)c1 ?
Reply: F

Ask: Give the logged outcome of this assay for the following compound: Nc1c2ccccc2nc2ccccc12
Reply: F

Ask: For this compound, state the assay outcome: CC(=O)NCCCCCC(=O)O
Reply: F

Ask: Kindly provide the recorded test outcome for the following compound: Nc1ccc(S(=O)(=O)NC(=O)c2ccccc2)cc1
Reply: F

Ask: Can you look up the reported call for CC(CN(C)C)CN1c2ccccc2CCc2ccccc21 (stereo unspecified) for me?
Reply: F

---

- PROTOCOL_NOTES: viability loss in pontine glioma line – cell-based, SU-DIPG-IV, MIPE4.0, CellTiter-Glo, qHTS, dose response (AID 1347063);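 also: compound exposure lasted 48 hours before the viability readout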
- SETTINGS: CellTiter-Glo ATP luminescence
Results filed as inconclusive are left out. Active and inactive are the calls of the source. No cut-off is given here; in the data, nearly all actives have AC50 up to about 30 µM.
Permitted responses: active, inactive

Reference set (2 entries):
COMPOUND | LABEL_VALUE
Cc1cn([C@H]2C=C[C@@H](CO)O2)c(=O)[nH]c1=O | inactive
CCC1(C)CC(=O)NC1=O (configuration not stated) | inactive

Ask: Entry Nc1ccc(S(=O)(=O)Nc2ccnn2-c2ccccc2)cc1 : call = ?
Reply: inactive

Ask: Per the assay record, what outcome was assigned to CC(N)C12CC3CC(CC(C3)C1)C2 (configuration not stated) ?
Reply: inactive

Ask: Just curious, what result did Cc1cnc(NC(=O)C2=C(O)c3ccccc3S(=O)(=O)N2C)s1 get here?
Reply: inactive

Ask: Which outcome did this test record for the compound COc1ccc(CCN(C)CCCC(C#N)(c2ccc(OC)c(OC)c2)C(C)C)cc1OC (configuration not stated) ?
Reply: inactive

Ask: How was Cc1c(O)cccc1C(=O)N[C@@H](CSc1ccccc1)[C@H](O)CN1C[C@H]2CCCC[C@H]2C[C@H]1C(=O)NC(C)(C)C classified in this test?
Reply: active

Ask: Name the outcome recorded for CCN1CCCC1CNC(=O)c1cc(S(=O)(=O)CC)c(N)cc1OC (configuration not stated) in the assay.
Reply: inactive

Ask: Answer briefly: the call reported for CC(=O)Oc1ccccc1C(=O)O in this assay.
Reply: inactive

Ask: Please indicate how the test categorized O=c1oc2cc(O)ccc2s1 .
Reply: inactive

Ask: So what was the verdict on O=C(N[C@H](CO)[C@H](O)c1ccc([N+](=O)[O-])cc1)C(Cl)Cl in this test?
Reply: inactive

Ask: Would you mind telling me which call this test gave COc1cc(C(=O)NS(=O)(=O)c2ccccc2C)ccc1Cc1cn(C)c2ccc(NC(=O)OC3CCCC3)cc12 ?
Reply: active

---

- PROTOCOL_NOTES: compounds altering Cy5-DNA-NS3h complex signal – biochemical, LOPAC1280, artefact control for HCV NS3 helicase inhibitor project (AID 687037)
- SETTINGS: Cy5-DNA-NS3h complex fluorescence interference counterscreen
Activity calls are given as the source filed them. The rule behind the calls is not given here.
Reported fluorescence ratio (interference) values follow for various compounds

Take a look at these entries with their results.
SMI | fluorescence ratio (interference)
COC(=O)Nc1nc2ccc(C(=O)c3cccs3)cc2[nH]1 | 0.9 (inactive)
CNC[C@H](O)c1ccc(O)c(O)c1 | 1 (inactive)
O=C1NCC2(CCN(CCc3ccccc3)CC2)O1 | 1 (inactive)
Cc1nnc(SCC2=C(C(=O)O)N3C(=O)[C@@H](NC(=O)Cn4cnnn4)[C@H]3SC2)s1 | 0.9 (inactive)
CN(C)CC[C@@H](c1ccc(Cl)cc1)c1ccccn1 | 0.9 (inactive)

// switching to the query compound
Ask: Return fluorescence ratio (interference) (reported value) for this compound: Cc1cc(C(C)(C)C)cc(C)c1CC1=NCCN1
Reply: 1 (inactive)

---

- PROTOCOL_NOTES: Wnt pathway potentiators raising nuclear beta-catenin – imaging, WNT3A-conditioned medium, mouse C2C12, NPC library, primary screen (AID 1117326)
- SETTINGS: at 10 µM, stronger effect = higher value
Reported nuclear beta-catenin stimulation is given for each of the following compounds.
Express the result in % but write the number alone.

# example entries with known answers
COMPOUND | UNIT_OF_MEASUREMENT | OBSERVED_VALUE
O=C(O)c1cc(O)c(O)c(O)c1 | % | 1
NS(=O)(=O)c1cc2c(cc1Cl)NC(C1CC3C=CC1C3)NS2(=O)=O (stereo unspecified) | % | 0.8
O=NN(CCCl)C(=O)NC1CCCCC1 | % | 11.8
Cc1c(C(=O)O)c(O)cc2c1C(=O)c1c(O)c([C@@H]3O[C@H](CO)[C@@H](O)[C@H](O)[C@H]3O)c(O)c(O)c1C2=O | % | 0
C=C[C@@]1(C)CC(=O)[C@]2(O)[C@@]3(C)[C@@H](O)CCC(C)(C)[C@@H]3[C@H](O)[C@H](OC(C)=O)[C@@]2(C)O1 | % | 1.1

Ask: For the compound CN1CCOC(c2ccccc2)c2ccccc2C1 (stereo unspecified) , give its measured nuclear beta-catenin stimulation value.
Reply: -0.7

Ask: For the compound O=C1CC2(CCCC2)CC(=O)N1CCNCC1COc2ccccc2O1 (stereo unspecified) , report nuclear beta-catenin stimulation.
Reply: 0.9

Ask: // fetch nuclear beta-catenin stimulation given entry CS(=O)(=O)Nc1ccc([N+](=O)[O-])cc1Oc1ccccc1
Reply: 0.4

---

- TARGET_SYSTEM: 6-phosphogluconate dehydrogenase, decarboxylating (Homo sapiens) (UniProt P52209)
- Sequence (P52209 whole entry, looked up): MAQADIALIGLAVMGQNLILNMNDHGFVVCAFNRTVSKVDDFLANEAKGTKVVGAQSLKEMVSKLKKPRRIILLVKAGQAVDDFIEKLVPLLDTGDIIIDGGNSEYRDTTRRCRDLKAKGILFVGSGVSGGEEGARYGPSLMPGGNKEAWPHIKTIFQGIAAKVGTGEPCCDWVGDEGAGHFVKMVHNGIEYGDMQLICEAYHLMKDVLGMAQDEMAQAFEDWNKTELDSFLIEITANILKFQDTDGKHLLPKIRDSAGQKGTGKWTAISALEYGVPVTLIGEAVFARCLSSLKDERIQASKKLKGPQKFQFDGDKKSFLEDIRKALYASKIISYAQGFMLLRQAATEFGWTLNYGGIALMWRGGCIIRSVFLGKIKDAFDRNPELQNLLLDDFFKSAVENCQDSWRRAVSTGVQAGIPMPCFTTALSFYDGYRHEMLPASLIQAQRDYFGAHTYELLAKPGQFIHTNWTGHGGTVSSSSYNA
- PROTOCOL_NOTES: inhibition of human phosphogluconate dehydrogenase – biochemical, recombinant enzyme, NADPH absorbance, primary screen (AID 1159550)
- SETTINGS: recombinant 6PGD, NADPH absorbance 341 nm; at 10 µM; stronger effect = higher value
Items are presented alongside their recorded inhibition.
State the answer as a number, implicitly in %.

Worked examples follow.
COMPOUND | inhibition, %
Cn1c(=O)c2c(ncn2CCO)n(C)c1=O | -5.12
O=C(OCc1ccccc1)c1ccccc1 | -0.0939
CC(=O)Oc1ccc(C(c2ccc(OC(C)=O)cc2)c2ccccn2)cc1 | 4.53
CCOC(=O)NNc1nncc2ccccc12 | -20.7

Ask: Provide inhibition value for the following compound: CC1CCC(NC(=O)N(CCCl)N=O)CC1 (configuration not stated)
Reply: 2.66
